Taken from patent US5618726A.

Test system: S. chromofuscus A11 extracellular peroxidase
Assay: Oxidation of azo dyes by S. chromofuscus A11 crude enzyme preparation
Assay type: biochemical, Streptomyces chromofuscus A11
Details: pH 8, 37° C., H2O2
Metric: Oxidation rate of azo dyes, S. chromofuscus peroxidase (μmoles per minute per ml)
Answers are plain numbers, in μmoles per minute per ml.

Enquiry: For the compound shown here, Nc1ccc(N=Nc2ccc(S(=O)(=O)O)cc2)cc1 [compound 30] , give the reported Oxidation rate of azo dyes, S. chromofuscus peroxidase.
Return: 0.00

Enquiry: # query: Oxidation rate of azo dyes, S. chromofuscus peroxidase of entry CCc1ccc(O)c(N=Nc2ccc(S(=O)(=O)O)cc2)c1 [compound 9]
Return: 0.35

Enquiry: Looking for the measured Oxidation rate of azo dyes, S. chromofuscus peroxidase of O=S(=O)(O)c1ccc(N=Nc2cc(F)c(O)c(F)c2)cc1 [compound 12] , can you help?
Return: 0.15

Enquiry: Oxidation rate of azo dyes, S. chromofuscus peroxidase for O=S(=O)(O)c1ccc(N=Nc2ccc(O)c(Cl)c2)cc1 [compound 13] ?
Return: 0.13

Please state, for each entry, its recorded Oxidation rate of azo dyes, S. chromofuscus peroxidase.
1. COc1cc(N=Nc2ccc(S(=O)(=O)O)cc2)cc(OC)c1O [compound 4]
2. Cc1cc(N=Nc2ccc(S(=O)(=O)O)cc2)ccc1O [compound 5]
3. Cc1cc(N=Nc2ccc(S(=O)(=O)O)cc2)cc(C)c1O [compound 3]
4. COc1cc(N=Nc2ccc(S(=O)(=O)O)cc2)ccc1O [compound 2]

Return:
[15.19, 2.00, 17.20, 3.68]

Provide reported Oxidation rate of azo dyes, S. chromofuscus peroxidase for each item, in the same order as listed.
1. CCN(CC)c1ccc(N=Nc2ccc(S(=O)(=O)O)cc2)cc1 [compound 15]
2. O=S(=O)(O)c1ccc2c(N=Nc3ccccc3)c(O)ccc2c1 [compound 19]
3. O=S(=O)(O)c1ccc(N=Nc2c(O)ccc3ccccc23)cc1 [compound 31]

Return:
1: 0.17; 2: 0.35; 3: 0.09

----------
Please respond with reported % Decolorization, P. chrysosporium for every item in the list.
Test system: Phanerochaete chrysosporium
Test: Substrate removal / decolorization by P. chrysosporium culture
Assay type: cell-based
Details: initial concn 300 ppm, 14 days
Answers are plain numbers, in %.

Enquiry: So what's the measured % Decolorization, P. chrysosporium for this one? Cc1cc(N=Nc2ccc(S(=O)(=O)O)cc2)ccc1O
Return: 87

Enquiry: What measured % Decolorization, P. chrysosporium goes with COc1cc(N=Nc2ccc(S(=O)(=O)O)cc2)cc(OC)c1O ?
Return: 92

New cases:
Enquiry: What % Decolorization, P. chrysosporium value was documented for this compound, COc1cc(N=Nc2ccc(N=Nc3ccc(S(=O)(=O)O)cc3)cc2S(=O)(=O)O)ccc1O ?
Return: 62

----------
Test system: S. chromofuscus A11 extracellular peroxidase
Test: Oxidation of azo dyes by S. chromofuscus A11 crude enzyme preparation
Format: biochemical, Streptomyces chromofuscus A11
Conditions: pH 8, 37° C., H2O2
Kindly supply the reported Oxidation rate of azo dyes, S. chromofuscus peroxidase values for the records listed here.

Enquiry: Dear colleague, I am looking for the recorded Oxidation rate of azo dyes, S. chromofuscus peroxidase of the following compound: Cc1cc(O)c(N=Nc2ccc(S(=O)(=O)O)cc2)cc1C
Return: 0.19 μmoles per minute per ml

Enquiry: For CN(C)c1ccc(N=Nc2ccc(S(=O)(=O)O)cc2)cc1 , what is its reported Oxidation rate of azo dyes, S. chromofuscus peroxidase?
Return: 0.10 μmoles per minute per ml

Enquiry: Need Oxidation rate of azo dyes, S. chromofuscus peroxidase of COc1cc(N=Nc2ccc(N=Nc3ccc(S(=O)(=O)O)cc3)cc2S(=O)(=O)O)ccc1O , thanks.
Return: 1.78 μmoles per minute per ml

Kindly give each listed record's Oxidation rate of azo dyes, S. chromofuscus peroxidase.
1. Cc1ccc(O)c(N=Nc2ccc(S(=O)(=O)O)cc2)c1
2. O=S(=O)(O)c1ccc(N=Nc2ccc(O)c3ccccc23)cc1
3. CCC(C)c1cc(N=Nc2ccc(S(=O)(=O)O)cc2)ccc1O (centres unmarked)
4. COc1ccc(N=Nc2ccc(S(=O)(=O)O)cc2)cc1OC
5. Nc1ccc(N=Nc2ccc(S(=O)(=O)O)cc2)cc1S(=O)(=O)O

Return:
0.14 μmoles per minute per ml
2.62 μmoles per minute per ml
0.78 μmoles per minute per ml
0.50 μmoles per minute per ml
0.15 μmoles per minute per ml
